# Assay Protocol: Drug concentration in male CD-1 mouse plasma at 3 mg/kg, iv measured after 4 hrs by LC-MS/MS analysis
# Assay type: ADME, organism-based
We begin with a simple list: items and their reported concentration at 4 h.
# output: bare number, implied unit ng/mL

COc1ccc(Nc2nc(-c3ccccc3)cc(C3CCNCC3)n2)cc1OC :: 74

Could you now consider this next compound?
Incoming: Which concentration at 4 h is reported for this compound? FC(F)(F)c1cc(Nc2nc(-c3ccccc3)cc(C3CCNCC3)n2)ccn1
Outgoing: 84

----------
# Assay Protocol: Drug concentration in male CD-1 mouse plasma at 10 mg/kg, po measured after 4 hrs by LC-MS/MS analysis
# Format: ADME, organism-based
Reported Property: concentration at 4 h (ng/mL)
Your answer is read as ng/mL, so omit the unit and give the number.

Incoming: May I ask what concentration at 4 h has been recorded for FC(F)(F)c1cc(Nc2nc(-c3ccccc3)cc(C3CCNCC3)n2)ccn1 ?
Outgoing: 40

----------
# Assay Protocol: Metabolic stability in mouse plasma assessed as half life at 2 uM measured after 0 to 120 mins by LC-MS/MS analysis
# Type: ADME, cell-free
# Condition Context: 2 µM, time 0-120 min
Each entry below carries its reported t1/2.

COc1ccc(Nc2nc(-c3ccccc3)cc(C3CCNCC3)n2)cn1 :: > 2 h
FC(F)(F)c1cccc(Nc2nc(C3=CCNCC3)nc(-c3ccsc3)n2)c1 :: > 2 h
CN(C)c1cccc(Nc2cc(-c3ccccc3)nc(C3=CCNCC3)n2)c1 :: > 2 h
FC(F)(F)c1cccc(Nc2nc(-c3ccccc3)cc(C3CCNCC3)n2)c1 :: > 2 h
FC(F)(F)c1cc(Nc2nc(-c3ccccc3)cc(C3CCNCC3)n2)ccn1 :: > 2 h
c1ccc(-c2cc(Nc3ccc4cc[nH]c4c3)nc(C3CCNCC3)n2)cc1 :: > 2 h

Incoming: May I ask what t1/2 has been recorded for CN(C)c1cccc(Nc2nc(-c3ccccc3)cc(C3CCNCC3)n2)c1 ?
Outgoing: 1 h

Incoming: Entry COC(=O)c1cc(Nc2nc(-c3ccccc3)cc(C3CCNCC3)n2)ccc1OC please
Outgoing: 1.48 h

Incoming: Quick one: COc1cc(Nc2nc(-c3ccccc3)cc(C3CCNCC3)n2)ccn1
Outgoing: > 2 h

Incoming: What about this compound? Cn1ccc2ccc(Nc3cc(-c4ccccc4)nc(C4CCNCC4)n3)cc21
Outgoing: > 2 h

Incoming: Record: FC(F)Oc1cc(Nc2nc(-c3ccccc3)cc(C3CCNCC3)n2)ccn1
Outgoing: > 2 h

Incoming: Proceed to FC(F)(F)c1cccc(Nc2nc(-c3ccc[nH]3)nc(C3CCNCC3)n2)c1
Outgoing: > 2 h

Incoming: Same question, FC(F)(F)Oc1cccc(Nc2nc(-c3ccccc3)cc(C3CCNCC3)n2)c1 this time
Outgoing: > 2 h
